Each entry below carries its recorded TGI.
test system: SNB-75 CNS; test: NCI tumour cell line growth inhibition, 48 h

Task: Name the recorded TGI for CCN1C(=O)N(CC)C2C1NN=c1s/c(=C3\C(=O)N(CC(C)C)c4ccccc43)c(=O)n12 (configuration not stated) .
Output: 3.82 µM

Task: Name the recorded TGI for CC1=NC2(CCCCC2)N(Cl)C(=O)C1SC#N (configuration not stated) .
Output: 44.5 µM

Task: Name the recorded TGI for COc1ccc(C2S/C(=C\c3cc(OC)c(OC)c(OC)c3)C(=O)N2NC(=O)Cc2ccccc2)cc1 (configuration not stated) .
Output: > 100 µM

Task: Name the recorded TGI for OC(C1=C/C(=C\c2ccncc2)c2ccccc21)c1ccncc1 (configuration not stated) .
Output: 24 µM

Task: Name the recorded TGI for C[C@@H]1O[C@@H](O[C@@H]2[C@@H](O)[C@H](OCCc3ccc(O)c(O)c3)O[C@H](COC(=O)/C=C/c3ccc(O)c(O)c3)[C@H]2O)[C@H](O)[C@H](O)[C@H]1O .
Output: > 100 µM

----------
test system: IGROV1 ovarian; assay: NCI tumour cell line growth inhibition, 48 h; in the data active means GI50 below about 0.43 µM; inactive means the rest
Form entry, call: pick from active, inactive

Field: example entries. Status: answers known.
1) CC(C)(C)C(=O)Nc1ccccc1I(=O)=O
inactive
2) C=C1C(=O)O[C@@H]2C1C[C@@H](O)/C(C)=C/C/C=C(\C)CCC[C@H](C)[C@H]2OC(C)=O (some centres undefined)
inactive
3) COc1ccc(C2=NN(C(=O)COc3ccc(Cl)cc3)C(O)(c3cc(F)c(Cl)cc3Cl)C2)cc1OC (centres undefined)
inactive

Task: What call does the record list for O=[N+]([O-])c1ccc(-c2nc(N(CCO)CCO)c3ccccc3n2)o1 ?
Output: active

----------
system: HCC-2998 colon; assay: NCI tumour cell line growth inhibition, 48 h
Reported property: GI50

Please review the following examples before continuing.
1) CCCCCCCCCNCCCCCCCCC
1.69 µM
2) Cc1cc(C)c(O)c(CNCCCCCCNCc2cc(C)cc(C)c2O)c1
1.02 µM
3) C=C1CC[C@@]2(C#N)[C@H]3[C@H](CC[C@@H]2C)[C@@H](C)C[C@@H](CC(C)(C)C#N)[C@H]13
2.95 µM

Task: Name the recorded GI50 for O=C1CCCCCCCC/C=C/CCC(c2ccco2)O1 (stereo not given) .
Output: > 100 µM

Task: Name the recorded GI50 for COc1ccc(C2=NN(C(=O)COc3ccc(Cl)cc3)C(O)(c3cc(F)c(Cl)cc3Cl)C2)cc1OC (stereo not given) .
Output: 3.91 µM

----------
system: NCI-H23 lung; assay: NCI tumour cell line growth inhibition, 48 h
Reported property: TGI

Please review the following examples before continuing.
1. COC(=O)COc1ccc(/C=C2\N=C(c3ccccc3)N(c3cc(C(F)(F)F)ccc3Cl)C2=O)cc1
> 100 µM
2. Cc1ccc(S(=O)(=O)NC(=O)NC(Cc2ccccc2)C(=O)O)cc1 (centres undefined)
> 100 µM

Task: What measured TGI is associated with c1cc2c(cc1C(N1CCNCC1)N1CCNCC1)OCO2 on NCI-H23 lung?
Output: > 100 µM

Task: What measured TGI is associated with CCN1C(=O)N(CC)C2C1NN=c1s/c(=C3\C(=O)N(CC(C)C)c4ccccc43)c(=O)n12 (centres undefined) on NCI-H23 lung?
Output: > 100 µM

Task: What measured TGI is associated with Cc1nc2c(=O)[nH]c(=O)n(C)c2[nH]c1=O on NCI-H23 lung?
Output: > 100 µM

Task: What measured TGI is associated with c1ccc2[nH]c(SSc3nc4ncncc4[nH]3)nc2c1 on NCI-H23 lung?
Output: > 100 µM

Task: What measured TGI is associated with N#CCc1ccc(C(C#N)/C(CCCC(=O)Nc2cccc([N+](=O)[O-])c2)=N\NC(=O)NN)cc1 (centres undefined) on NCI-H23 lung?
Output: > 100 µM

----------
system: SNB-75 CNS; experiment: NCI tumour cell line growth inhibition, 48 h
Each entry below carries its recorded TGI.

Please review the following examples before continuing.
1. COC(=O)C1=C(O)C(C(=O)OC)[C@]2(O)[C@H](C(=O)OC)[C@H]1C[C@@H](c1cccc(OC)c1)[C@H]2C(=O)OC (stereo not given in full)
> 100 µM
2. COc1c(C)c2c(c(O)c1C/C=C(\C)CCC(=O)OCCN1CCOCC1)C(=O)OC2
> 24.9 µM
3. Cc1ccc2ccc(=O)oc2c1
> 100 µM
4. O=C1c2cc([N+](=O)[O-])cnc2S(=O)(=O)N1c1ccc(Br)cc1
> 100 µM

API: the following record is the query input.
Task: Name the recorded TGI for S=c1nc(Oc2ccc(Cl)c(Cl)c2)[nH]c(=S)[nH]1 .
Output: > 84.5 µM

----------
test system: SK-MEL-5 melanoma; test: NCI tumour cell line growth inhibition, 48 h; in the data active means GI50 below about 0.43 µM; inactive means the rest
Form entry, call: pick from yes = active, no = inactive

1. O=C(NC1CC1)c1ccc(-c2nc3ccc4[nH]ncc4c3c3c2CCCC3)cc1
no
2. COc1cc(C(=O)O[C@H](C(=O)NCCNC(=O)[C@@H](OC(=O)c2cc(OC)cc3c(C)cccc23)[C@]2(C)CO2)[C@]2(C)CO2)c2cccc(C)c2c1
yes
3. O=C(Nc1ccc(-n2cc(-c3ccncc3)c(-c3ccc(Cl)c(O)c3)n2)cc1)Nc1cc(C(F)(F)F)cc(C(F)(F)F)c1
no

Please turn your attention to the following entry.
Task: What call does the record list for O=C(Nc1ccc(-n2cc(-c3ccncc3)c(-c3ccc(O)c(Cl)c3)n2)cc1)c1cc(Cl)cc(Cl)c1 ?
Output: no

----------
Each entry below carries its recorded TGI.
tested on: PC-3 prostate; test: NCI tumour cell line growth inhibition, 48 h

Please review the following examples before continuing.
1. NNC(=Nc1ccccc1)SCc1ccccc1
> 100 µM
2. COc1cc(NC(=O)c2cc(OC)c3ccn(C)c3c2)cc2c1C[C@]1(C)CC[C@@H](O)C(C)(C)[C@H]1O2
> 100 µM
3. O=c1[nH]c2nccnc2c2c([N+](=O)[O-])cccc12
> 100 µM
4. CC(=O)C1CC2(c3ccc(C)cc3)C(c3ccc(C)cc3)=C(c3ccc(C)cc3)C1(c1ccc(C)cc1)S2=O (configuration not stated)
> 100 µM
5. OCc1c2c(cc3c1CC1(C3)Cc3cc4c(c(CO)c3C1)CCC4)CCC2
39.9 µM

Task: Name the recorded TGI for CCN(CC)c1ccc2c(c1)Oc1ccc(N(C(C)=O)c3ccccc3)cc1C21OC(=O)c2ccccc21 (configuration not stated) .
Output: > 100 µM

Task: Name the recorded TGI for C=C(C)[C@@H]1CC[C@]2(CO)CC[C@]3(C)[C@H](CC[C@@H]4[C@@]5(C)CC[C@H](O)C(C)(C)[C@@H]5CC[C@]43C)[C@@H]12 .
Output: 84.3 µM

Task: Name the recorded TGI for N#Cc1ccc(/C=N/NC(=O)CSCC(=O)N/N=C/c2ccc(C#N)cc2)cc1 .
Output: > 100 µM

Task: Name the recorded TGI for C/C=C1\CN2CCC34c5ccccc5N(C)C35OCC4(C(=O)OC)C1CC25 (configuration not stated) .
Output: > 100 µM

Task: Name the recorded TGI for C=CCn1c(-c2ccccc2)cs/c1=N\C(P(=O)(O)O)P(=O)(O)O .
Output: > 100 µM

Task: Name the recorded TGI for Fc1ccc(Oc2nccc(-c3c(-c4ccc(F)cc4)ncn3C3CCNCC3)n2)cc1 .
Output: > 25 µM

Task: Name the recorded TGI for C=C(Cl)COC(=O)Nc1cccc(Cl)c1 .
Output: 84.6 µM

Task: Name the recorded TGI for O=C(Nc1ccccc1)c1cc(S(=O)(=O)Nc2n[nH]c(=O)[nH]2)c(SSc2cc(Cl)c(C(=O)Nc3ccccc3)cc2S(=O)(=O)Nc2n[nH]c(=O)[nH]2)cc1Cl .
Output: > 100 µM

----------
tested on: M14 melanoma; assay: NCI tumour cell line growth inhibition, 48 h
Reported property: TGI

Please review the following examples before continuing.
1. CN1[C@@H]2CCCC[C@H]2N(C)P1(=O)C(O)/C=C/c1ccccc1 (stereo partly drawn)
> 100 µM
2. S=c1nc(Oc2ccc(Cl)c(Cl)c2)[nH]c(=S)[nH]1
> 100 µM

Task: Name the recorded TGI for CC1(CCc2ccccc2)CC1(Br)Br (stereo not drawn) .
Output: > 100 µM

----------
test system: MCF7 breast; assay: NCI tumour cell line growth inhibition, 48 h; in the data active = GI50 below about 0.43 µM; inactive = the rest
Form entry, call: pick from y (active), n (inactive)

1) COc1cc(C(=O)O[C@H](C(=O)NCCNC(=O)[C@@H](OC(=O)c2cc(OC)cc3c(C)cccc23)[C@]2(C)CO2)[C@]2(C)CO2)c2cccc(C)c2c1
y
2) CCCCCNC(=O)[C@@H]1CCCN2C(=O)CC[C@H](NC(=O)[C@H](Cc3ccc(OP(=O)(O)O)cc3)NC(C)=O)C(=O)N12
n

Please turn your attention to the following entry.
Task: What call does the record list for CC(C)(C)C(=O)Nc1ccccc1I(=O)=O ?
Output: n
